Assayed system: Mitogen-activated protein kinase 11 (Homo sapiens, UniProt Q15759)
Sequence (Q15759 whole entry): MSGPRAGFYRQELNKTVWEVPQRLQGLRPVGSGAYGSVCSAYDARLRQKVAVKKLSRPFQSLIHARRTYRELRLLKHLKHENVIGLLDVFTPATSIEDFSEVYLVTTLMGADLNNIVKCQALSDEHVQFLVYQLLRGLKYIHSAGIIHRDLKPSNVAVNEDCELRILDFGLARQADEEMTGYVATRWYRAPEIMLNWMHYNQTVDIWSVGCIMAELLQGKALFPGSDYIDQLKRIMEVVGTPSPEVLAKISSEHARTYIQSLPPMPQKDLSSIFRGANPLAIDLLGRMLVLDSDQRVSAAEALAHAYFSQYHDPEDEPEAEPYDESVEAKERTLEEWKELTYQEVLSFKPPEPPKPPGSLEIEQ
Test description: Inhibition of Mitogen-activated protein kinase p38 beta
Measured property: pIC50
# pIC50 is unitless: minus log10 of the molar concentration; print number only

query: Tell me its pIC50 given Cn1nc(C(C)(C)C)cc1NC(=O)Nc1ccc(Cc2ccncc2)cc1 as the entry.
result: 6.96

----------
System: SW1353
Test description: TNF-alpha-induced IL-6 production in SW1353 cells
Assay type: functional, cell-based
Condition: Homo sapiens
Measured property: IC50 (nM)
Please give a number only; it is taken to be in nM.

Consider the following illustrative entries.
Structure smiles: Cn1nc(C(C)(C)C)cc1NC(=O)Nc1ccc(Sc2ccncc2)cc1
IC50, nM: 95

Structure smiles: CCC(=O)Nc1ccc(Oc2ccc(NC(=O)Nc3cc(C(C)(C)C)nn3C)cc2)cc1
IC50, nM: 1060

Structure smiles: CCC(=O)Nc1ccc(Cc2ccc(NC(=O)Nc3cc(C(C)(C)C)nn3C)cc2)cc1
IC50, nM: 1750

query: Tell me its IC50 given CC(C)OC(=O)Nc1ccc(Oc2ccc(NC(=O)Nc3cc(C(C)(C)C)nn3C)cc2)cc1 as the entry.
result: 162

query: Tell me its IC50 given Cn1nc(C(C)(C)C)cc1NC(=O)Nc1ccc(CSc2ccncc2)cc1 as the entry.
result: 584

query: Tell me its IC50 given Cn1nc(C(C)(C)C)cc1NC(=O)Nc1ccc(Cc2ccncc2)cc1 as the entry.
result: 323

query: Tell me its IC50 given CC(C)CC(=O)Nc1ccc(Cc2ccc(NC(=O)Nc3cc(C(C)(C)C)nn3C)cc2)cc1 as the entry.
result: 170

query: Tell me its IC50 given Cn1nc(C(C)(C)C)cc1NC(=O)Nc1ccc(Cc2ccc(NC(=O)OC(C)(C)C)cc2)cc1 as the entry.
result: 57
